# METHOD NOTES: Cytotoxicity, MTT assay
# Type: cell-based
# CONDITION NOTES: Chinese hamster, CHO cells
# Experimental: Cytotoxicity (EC50) was determined against Chinese hamster ovarian (CHO) using a 3-(4,5-dimethylthiazol-2-yl)-2,5-diphenyltetrazolium bromide (MTT) assay and hepatocellular carcinoma cells (HepG2) using the Cytoselect LDH cytotoxicity assay kit (Cell Biolabs).
pEC50: −log10 of the molar value.
QUANTITY MEASURED: pEC50

• CC(=O)Nc1ccc(S(=O)(=O)N2CCN([C@@H]3O[C@@H]4O[C@@]5(C)CC[C@H]6[C@H](C)CC[C@@H]([C@H]3C)[C@@]46OO5)CC2)cc1 = < 3.75
• C[C@H]1[C@H](N2CCN(S(=O)(=O)c3ccc(F)cc3)CC2)O[C@@H]2O[C@@]3(C)CC[C@H]4[C@H](C)CC[C@@H]1[C@@]24OO3 = < 3.71
• C[C@H]1[C@H](N2CCN(S(=O)(=O)c3cccc(C(F)(F)F)c3)CC2)O[C@@H]2O[C@@]3(C)CC[C@H]4[C@H](C)CC[C@@H]1[C@@]24OO3 = < 3.75
• C[C@H]1[C@H](N2CCN(S(=O)(=O)c3cccc(F)c3)CC2)O[C@@H]2O[C@@]3(C)CC[C@H]4[C@H](C)CC[C@@H]1[C@@]24OO3 = < 3.71

The compound listed as `C[C@H]1[C@H](NS(=O)(=O)N2CCN(c3ccccn3)CC2)O[C@@H]2O[C@@]3(C)CC[C@H]4[C@H](C)CC[C@@H]1[C@@]24OO3` has a reported pEC50 of < 3.71
